Tested on: Human lung cancer cells A549
TEST SUMMARY: MTS cell growth inhibition, A549
Type: cell-based
ASSAY SETUP: compound concentration 10 μM, 48 h, MTS, read-out: Inhibition rate against A549 at 10 μM (%)
READOUT KIND: inhibition at 10 µM (%)
Reply numerically in %, unit not repeated.

Would you kindly share the measured inhibition at 10 µM for O=C(NCc1ccccc1-c1cccnc1)c1cc2scnc2[nH]1 ? 53.4

Also check COC(=O)c1ccc(NC(=O)c2cc3scnc3[nH]2)cc1 56.8

Also check O=C(Nc1ccc(C(F)(F)F)cc1)c1cc2scnc2[nH]1 7.6

Also check Cc1cn(-c2cc(NC(=O)c3cc4scnc4[nH]3)cc(C(F)(F)F)c2)cn1 59.5

Next, consider the following molecule.
Would you kindly share the measured inhibition at 10 µM for O=C(NCc1ccccc1-c1ccsc1)c1cc2scnc2[nH]1 ? 20.1
